# Ki per entry
Biological target: human dopamine D3 receptors (Homo sapiens)
Sequence (P35462 whole entry): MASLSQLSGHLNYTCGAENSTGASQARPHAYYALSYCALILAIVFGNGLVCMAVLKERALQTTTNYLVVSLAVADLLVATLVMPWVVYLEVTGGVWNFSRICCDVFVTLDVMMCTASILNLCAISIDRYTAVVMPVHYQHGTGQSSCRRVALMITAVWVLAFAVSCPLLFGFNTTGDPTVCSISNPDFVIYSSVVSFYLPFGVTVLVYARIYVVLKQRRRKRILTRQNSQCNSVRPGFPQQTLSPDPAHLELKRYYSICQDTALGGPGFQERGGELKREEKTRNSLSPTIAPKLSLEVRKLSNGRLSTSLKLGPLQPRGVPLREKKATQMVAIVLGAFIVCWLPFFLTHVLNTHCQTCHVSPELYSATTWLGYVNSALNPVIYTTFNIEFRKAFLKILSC
Please give a number only; it is taken to be in nM.

Solved cases below.
# Molecule, Ki / nM
rows = [
    ("O=C(O)/C=C/C(=O)O.O=C1CCC(=O)N(CCCCN2CCN(c3cc(C(F)(F)F)cc(C(F)(F)F)c3)CC2)c2ccccc21 [Example 87, fumarate]", 7.4),
    ("CCCc1cc(N2CCN(CCCCN3C(=O)CCC(=O)c4ccccc43)CC2)nc(C(C)(C)C)n1.Cl [Example 7, hydrochloride]", 1.33),
    ("O=C1CCC(=O)N(CCCCN2CCN(c3cc(Cl)cc(Cl)c3)CC2)c2ccccc21", 2),
    ("CC(C)(C)c1nc(N2CCN(C/C=C/CN3C(=O)CCC(=O)c4ccccc43)CC2)cc(C(F)(F)F)n1", 1.74),
    ("CC(C)(C)c1nc(C2CC2)cc(N2CCN(CCCCN3C(=O)CCC(=O)c4ccccc43)CC2)n1", 0.96),
]

Q: Can you look up Ki on human dopamine D3 receptors (Homo sapiens) for CC(C)(C)c1cc(N2CCN(CCCCN3C(=O)CCC(=O)c4ccccc43)CC2)nc(C(C)(C)C)n1.Cl [Example 10, hydrochloride] ?
Ans: 1.24

---

Biological target: human dopamine D2L receptors (long isoform) (Homo sapiens, UniProt P14416)
Construct: expressed in transfected cells; membranes)
Sequence (P14416 whole entry, canonical isoform): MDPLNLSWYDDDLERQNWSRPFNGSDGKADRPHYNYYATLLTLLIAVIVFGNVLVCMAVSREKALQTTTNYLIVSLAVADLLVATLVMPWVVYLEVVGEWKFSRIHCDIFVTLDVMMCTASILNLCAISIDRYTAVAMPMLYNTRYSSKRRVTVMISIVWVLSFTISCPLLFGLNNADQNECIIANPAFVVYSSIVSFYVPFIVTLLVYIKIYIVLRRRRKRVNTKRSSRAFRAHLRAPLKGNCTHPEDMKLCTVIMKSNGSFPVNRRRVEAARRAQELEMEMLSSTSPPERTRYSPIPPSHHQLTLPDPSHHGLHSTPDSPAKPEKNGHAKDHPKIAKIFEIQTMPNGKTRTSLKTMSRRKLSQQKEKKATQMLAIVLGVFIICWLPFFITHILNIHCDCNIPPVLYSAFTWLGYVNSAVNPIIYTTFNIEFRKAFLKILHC
Assay: Dopamine D2L receptor binding, displacement of [125I]-iodospiperone
Conditions: ratio Ki(D2L)/Ki(D3); HEK-293 membranes with human D2L and D3 receptors
Decision: Selectivity vs. D2L (Ki(D2L)/Ki(D3)) compared against 100; not below it gives label 1, below it gives label 0.

# Smiles Repr, Label Class
rows = [
    ("CCCc1cc(N2CCN(CCCCN3C(=O)CCC(=O)c4ccccc43)CC2)nc(C(C)(C)C)n1.Cl", "label 1"),
]

Please look at the following compound next.
Q: Can `O=C(O)/C=C/C(=O)O.O=C1CCC(=O)N(CCCCN2CCN(c3cc(C(F)(F)F)cc(C(F)(F)F)c3)CC2)c2ccccc21` be said to have Selectivity vs. D2L (Ki(D2L)/Ki(D3)) at or above 100?
Ans: label 1

---

Biological target: human dopamine D2L receptors (long isoform) (Homo sapiens, UniProt P14416)
Construct: expressed in transfected cells; membranes)
Experiment: Dopamine D2L receptor binding, displacement of [125I]-iodospiperone
Details: ratio Ki(D2L)/Ki(D3); HEK-293 membranes with human D2L and D3 receptors
Assay Readout: Selectivity vs. D2L (Ki(D2L)/Ki(D3))

As a guide, the following entries are already answered.
# Smiles Repr, Result
measured = [
    ("CC(C)(C)c1cc(N2CCN(CCCCN3C(=O)CCC(=O)c4ccccc43)CC2)nc(C(C)(C)C)n1.Cl", 74),
    ("COc1cc2c(cc1OC)N(CCCCN1CCN(c3cc(C(F)(F)F)nc(C(C)(C)C)n3)CC1)C(=O)CCC2=O", 104),
    ("O=C1CCC(=O)N(CCCCN2CCN(c3cc(Cl)cc(Cl)c3)CC2)c2ccccc21", 56),
    ("CC(C)(C)c1nc(N2CCN(C/C=C/CN3C(=O)CCC(=O)c4ccccc43)CC2)cc(C(F)(F)F)n1", 155),
]

Now for the compound whose Selectivity vs. D2L (Ki(D2L)/Ki(D3)) we want.
Q: Given `CC(C)(C)c1nc(C2CC2)cc(N2CCN(CCCCN3C(=O)CCC(=O)c4ccccc43)CC2)n1` , state its recorded Selectivity vs. D2L (Ki(D2L)/Ki(D3)).
Ans: 62
